B1: HHH_rd2_0155 (parent)
chain: PPDDERKKAEKAARSGNEEKAREILERLGYSEDEARELAKRLR

- Variants of: B1
- Assay explanation: folding stability dG (cDNA display proteolysis); higher = more stable
- Condition details: PBS, room temperature
Endpoint label: folding stability dG

Solved entries:
>  <Variant identifier>
E23Q

>  <folding stability dG>
2.18 kcal/mol

$$$$
>  <Variant identifier>
K7I

>  <folding stability dG>
2.08 kcal/mol

$$$$

Hi team, please reply with folding stability dG for each item in this list.
1. E34D
2. R6P
3. L25V
4. L38W
5. A12D
6. S31P

Resp:
1. 1.87 kcal/mol
2. 0.99 kcal/mol
3. 0.267 kcal/mol
4. 1.49 kcal/mol
5. 0.919 kcal/mol
6. 1.46 kcal/mol

Hi team, please reply with folding stability dG for each item in this list.
1. K40Y
2. L28R
3. Y30H
4. K11E

Resp:
1. 1.98 kcal/mol
2. 0.697 kcal/mol
3. 1.13 kcal/mol
4. 2.5 kcal/mol

Hi team, please reply with folding stability dG for each item in this list.
1. L38D
2. N17F
3. D4R

Resp:
-0.841 kcal/mol
1.9 kcal/mol
1.98 kcal/mol

Hi team, please reply with folding stability dG for each item in this list.
1. K11W
2. A21G

Resp:
2.14 kcal/mol
0.961 kcal/mol
